Can you tell me AC50 for the items I'm about to list?
Target: Transforming acidic coiled-coil-containing protein 3 (Homo sapiens)
Test: inhibition of ARNT PAS-B/TACC3 complex formation – biochemical, AlphaScreen, cherry-picked samples, confirmation (AID 651703);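 note: TACC3 partner is the GST-tagged E629A mutant dimer; hits lower the signal meaning they disrupt ARNT binding to TACC3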
Conditions: AlphaScreen His-ARNT PAS-B / GST-TACC3 binding, luminescence

## Input State its AC50 for this molecule: O=C(N[C@@H]1CC[C@H](CCn2cc(-c3ccccn3)nn2)O[C@H]1CO)c1ccncc1
## Output 7.57 µM

## Input Using the record for CN1CCC(=O)N(CCOc2ccccc2)CC1 , state its measured AC50.
## Output 4.44 µM

## Input Check the records and state AC50 for COc1ccc(C2C(C#N)=C(N)Oc3c2ccc2cccnc32)cc1OC (stereo not drawn)
## Output 58.6 µM

## Input Provide one value: measured AC50 of Nc1ccc2nc(-c3ccccn3)[nH]c2c1
## Output 10.1 µM

## Input Give the reported value of AC50 for this record: O=S(=O)(N[C@H]1CC[C@@H](CCn2cc(-c3ccccn3)nn2)O[C@@H]1CO)c1cccc(Cl)c1
## Output 16.9 µM

## Input Please supply the value of reported AC50 for the item O=C(NN=C(c1ccccc1)c1ccccn1)c1ccccc1
## Output 16.9 µM

## Input Specify AC50 for O=C(NCCCn1ccnc1)C(=O)NCC1OCCN1S(=O)(=O)c1cc(F)ccc1F (stereo not drawn) and stop.
## Output 3 µM

## Input Identify AC50 associated with the molecule O=C(N[C@H]1CC[C@@H](CCn2cc(-c3ccccn3)nn2)O[C@@H]1CO)c1ccc(F)cc1
## Output 14.8 µM

## Input For the molecule c1ccc(-c2nnc(-c3ccccn3)nn2)nc1 , report AC50.
## Output 28.8 µM

## Input State its AC50 for this molecule: COc1cccc(/C=N/NC(=O)C(=O)N2CCCCCC2)c1O
## Output 18.8 µM

## Input Give the measured AC50 for COc1ccc(NC(=O)N[C@H]2CC[C@H](CCn3cc(-c4ccccn4)nn3)O[C@@H]2CO)cc1
## Output 12 µM

## Input Look up and state reported AC50 for Nc1ccccc1C(=O)N=Nc1[nH]c(N)c2ccccc12
## Output 10.3 µM

## Input Give AC50 for COc1ccc(S(=O)(=O)N2CCCOC2CNC(=O)C(=O)NCCCn2ccnc2)cc1OC (stereo not drawn)
## Output 47.2 µM

## Input Fill in AC50 for record COc1ccc(Cc2nnc(N/N=C/c3ccccc3O)[nH]c2=O)cc1OC
## Output 1.42 µM

## Input Report AC50, nothing else, for this molecule: O=C(Nc1nnc(C2CC2)o1)c1ccc(S(=O)(=O)N2CCCCC2)cc1
## Output 18.4 µM

## Input Give me measured AC50, please, for this molecule: CC(=O)Nc1cccc(C(=O)O)n1
## Output 12.2 µM

## Input Retrieve AC50 measured for Oc1c(CN2CCN(c3ccc(F)cc3)CC2)cc(Cl)c2cccnc12 and print it.
## Output 2.5 µM

## Input Identify AC50 associated with the molecule COc1cc(OC)cc(C(=O)Nc2nnc(-c3cccnc3)o2)c1
## Output 20.8 µM

## Input # return recorded AC50 for input Cc1ccccc1Nc1nc(N)nc(CN(C)Cc2ccccc2Cl)n1
## Output 53.5 µM

## Input For CCC(=O)NC(c1cc(Cl)c2cccnc2c1O)C1CC1 (stereo not drawn) , write its AC50.
## Output 9.34 µM

## Input Could you please provide reported AC50 for O=C(Nc1nnc(C2=COCCO2)o1)c1ccc([N+](=O)[O-])cc1 ? Thanks!
## Output 34.3 µM

## Input Hello, please tell me recorded AC50 for this one: Clc1cccc(-c2ccc(CNCc3ccccn3)o2)c1
## Output 21.2 µM

## Input Note down AC50 recorded for O=C(Oc1c(CN2CCOCC2)cc(Cl)c2cccnc12)c1cccs1
## Output 15.2 µM

---

Target: Transforming acidic coiled-coil-containing protein 3 (Homo sapiens) (UniProt Q9Y6A5)
Assay: inhibition of ARNT PAS-B/TACC3 complex formation – biochemical, AlphaScreen, cherry-picked samples, confirmation (AID 651703);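 note: TACC3 partner is the GST-tagged E629A mutant dimer; hits lower the signal meaning they disrupt ARNT binding to TACC3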
Details: AlphaScreen His-ARNT PAS-B / GST-TACC3 binding, luminescence
measured_attribute: AC50

## Input // fetch AC50 given entry Cc1cc(NC(=O)CC(C)C)c(=O)n(Cc2ccccc2F)c1
## Output 9.6 µM

## Input Report AC50 for COc1ccc(S(=O)(=O)N2CCOC2CNC(=O)C(=O)NCCCn2ccnc2)cc1OC (stereo not given)
## Output 22.4 µM

## Input Check the records and state AC50 for O=C(CSc1ccc2nnc(-c3ccccn3)n2n1)Nc1ccc(F)cc1F
## Output 35.4 µM

## Input // fetch AC50 given entry CCN(CCCl)c1cc(CN(C)C)cc(NC(=O)c2ccc(C(=O)Nc3cc(CN(C)C)cc(N(CC)CCCl)c3)cc2)c1
## Output 1.92 µM

## Input Give AC50 for the following compound: O=C(CSC1=NNC(c2ccccn2)S1)Nc1ccccc1 (stereo not given)
## Output 0.823 µM

## Input Recall and state the measured AC50 for Cc1[nH]n(-c2ccccc2)c(=O)c1/C=N/N(c1ccccc1)c1ccccc1 .
## Output 16.2 µM

## Input Read the entry Cc1ccccc1CNc1nc(-c2ccccn2)nnc1-c1ccccc1 and write its reported AC50.
## Output 0.647 µM

## Input Identify measured AC50 corresponding to Cc1csc(NC(=O)CSc2ccc(-c3ccccn3)nn2)n1
## Output 3.14 µM

## Input Hello, please tell me recorded AC50 for this one: O=C(N/N=C/c1cc(Cl)cc(Cl)c1O)c1ccncc1
## Output 3.58 µM

## Input For the compound Cc1ccc(Nc2nc(N)nc(CN3CCCCCC3)n2)cc1 , give its measured AC50 value.
## Output 34.4 µM

## Input Respond only with AC50 recorded for O=C(N[C@H]1CC[C@@H](CCn2cc(-c3ccccn3)nn2)O[C@H]1CO)c1ccncc1
## Output 9.53 µM

## Input Identify measured AC50 corresponding to C(=N\Nc1ccc2nncn2n1)/c1ccccn1
## Output 14 µM

## Input For the compound C/C(=N\NC(=O)c1c[nH]c2ccccc12)c1ccc(C)o1 , give its reported AC50.
## Output 16.4 µM

## Input Recall and state the measured AC50 for COc1cccc(/C=N/NC(=O)c2ccc3nc[nH]c3c2)c1O .
## Output 23.3 µM

## Input // fetch AC50 given entry Cc1ccc(Nc2c(-c3ccccn3)nc3cccc(C)n23)cc1
## Output 3.62 µM

## Input Let me know recorded AC50 for c1ccc(-c2nccc(-c3ccco3)n2)nc1 , thanks.
## Output 11.2 µM

## Input Specify measured AC50 for CC(C)(C)OC(=O)N1CCN(Cc2ccc(O)c3ncccc23)CC1 .
## Output 0.625 µM

## Input Return AC50 for the following compound: c1ccc(-c2nnc(SCc3nc4ccccc4[nH]3)n2Cc2ccco2)nc1
## Output 19.8 µM

## Input Name the recorded AC50 of the compound listed here: CC1CC1C(=O)Nc1nc(-c2ccccn2)cs1 (stereo not given)
## Output 15.2 µM

## Input Give the reported value of AC50 for this record: O=C(Nc1nnc(SCc2ccc(F)cc2)s1)c1ccccn1
## Output 7.06 µM

## Input Tell me measured AC50 for Cc1ccc(Nc2nc(-c3ccccn3)nnc2-c2ccccc2)cn1 please.
## Output < 0.5 µM

## Input Identify measured AC50 corresponding to COc1cc(CNCc2ccccn2)ccc1OCc1ccc(Cl)cc1
## Output 60.7 µM

## Input Annotate the compound O=C(N/N=C/c1cc(Br)ccc1O)C(c1ccncc1)N1CCOCC1 (stereo not given) with its measured AC50.
## Output 13.4 µM

## Input Identify AC50 associated with the compound COc1ccc(NC(=O)Nc2ccc3c(c2)CC(=O)N([C@H](C)CO)C[C@H](C)[C@@H](CN(C)Cc2ccc(Oc4ccccc4)cc2)O3)cc1
## Output 23.6 µM

## Input Consider the compound COc1ccc(Br)cc1CNc1ccc(O)cc1 and give its recorded AC50.
## Output 37.6 µM

## Input In one line, give reported AC50 of the entry O=C(N[C@H]1CC[C@@H](CCn2cc(-c3ccccn3)nn2)O[C@@H]1CO)c1cccnc1 .
## Output 9.19 µM

## Input Consider the compound C=CCn1c(Cc2csc(N)n2)nnc1SCC(=O)Nc1ccc(C(=O)OCC)cc1 . State its measured AC50.
## Output 14.1 µM

## Input Please list AC50 recorded for the compound Cc1sc2ncnc(N/N=C/c3ccccc3O)c2c1C
## Output 10.1 µM

## Input Let me know recorded AC50 for O=C(Nc1nc(-c2ccccn2)cs1)C1COc2ccccc2O1 (stereo not given) , thanks.
## Output 5.46 µM

## Input Identify measured AC50 corresponding to Cc1ccccc1NC(=O)CSc1ccc(-c2ccccn2)nn1
## Output 3.47 µM

## Input Input c1ccc(C2=Nn3c(nnc3-c3ccccn3)SC2)cc1 , output reported AC50.
## Output 64.9 µM

## Input Kindly indicate its recorded AC50. Item: Cc1ncc(CO)c(/C=N/NC(=O)c2cc3c(s2)CCCC3)c1O
## Output 11.3 µM

## Input Specify reported AC50 for the compound shown: Cc1ccc(Nc2c(-c3ccccn3)nc3cc(C)ccn23)cc1
## Output 3.02 µM

## Input Consider the compound O=c1[nH][nH]c(=O)c2nc(Nc3ccccc3)ncc12 and give its recorded AC50.
## Output 66.1 µM

## Input Indicate its recorded AC50; the compound in question is COc1cc2c(c(OC)c1OC)-c1ccc(O)c(=O)cc1[C@@H](NC(C)=O)CC2
## Output 40.8 µM

## Input Let me know recorded AC50 for Oc1cc(-c2ccncc2)cc2cccnc12 , thanks.
## Output 0.771 µM

## Input Output measured AC50 for this item: Cc1cc(=O)[nH]c(-n2[nH]c3c(c2=O)CCCC3)n1
## Output 39.3 µM

## Input Identify AC50 associated with the compound Cc1cc(C)c2nc(C)cc(N/N=C/c3ccc(O)cc3)c2c1
## Output 37.3 µM

## Input // fetch AC50 given entry CCOc1ccc(C(=O)CCNC(Cc2cnc[nH]2)C(=O)O)cc1 (stereo not given)
## Output 41.2 µM

## Input Tell us which AC50 value is on record for C/C(=N\NC(=O)c1cccc2ccccc12)c1ccccn1
## Output 3.15 µM

## Input Determine from records and report AC50 for CCOc1ccccc1C(=O)OCC(=O)Nc1nnc(-c2ccccc2)o1
## Output 23.3 µM

## Input Supply recorded AC50 for O=C(N[C@@H]1CC[C@H](CCn2cc(-c3ccccn3)nn2)O[C@H]1CO)c1ccc(F)cc1 here.
## Output 14.3 µM

## Input Provide measured AC50 value, entry: O=c1[nH]c(N2CCOCC2)cc2ccccc12
## Output 63.8 µM

## Input Identify AC50 associated with the compound O=C(c1ccco1)[C@@H]1[C@@H]2C(=O)N(c3ccccc3)C(=O)[C@@H]2C2c3ccccc3C=CN21 (stereo not given in full)
## Output 45.9 µM

## Input Provide one value: measured AC50 of Clc1cccc(CNc2nc(-c3ccccn3)nnc2-c2ccccc2)c1
## Output 1.05 µM
